target: Fibroblast growth factor receptor 1 (Homo sapiens)
Sequence (P11362 whole entry): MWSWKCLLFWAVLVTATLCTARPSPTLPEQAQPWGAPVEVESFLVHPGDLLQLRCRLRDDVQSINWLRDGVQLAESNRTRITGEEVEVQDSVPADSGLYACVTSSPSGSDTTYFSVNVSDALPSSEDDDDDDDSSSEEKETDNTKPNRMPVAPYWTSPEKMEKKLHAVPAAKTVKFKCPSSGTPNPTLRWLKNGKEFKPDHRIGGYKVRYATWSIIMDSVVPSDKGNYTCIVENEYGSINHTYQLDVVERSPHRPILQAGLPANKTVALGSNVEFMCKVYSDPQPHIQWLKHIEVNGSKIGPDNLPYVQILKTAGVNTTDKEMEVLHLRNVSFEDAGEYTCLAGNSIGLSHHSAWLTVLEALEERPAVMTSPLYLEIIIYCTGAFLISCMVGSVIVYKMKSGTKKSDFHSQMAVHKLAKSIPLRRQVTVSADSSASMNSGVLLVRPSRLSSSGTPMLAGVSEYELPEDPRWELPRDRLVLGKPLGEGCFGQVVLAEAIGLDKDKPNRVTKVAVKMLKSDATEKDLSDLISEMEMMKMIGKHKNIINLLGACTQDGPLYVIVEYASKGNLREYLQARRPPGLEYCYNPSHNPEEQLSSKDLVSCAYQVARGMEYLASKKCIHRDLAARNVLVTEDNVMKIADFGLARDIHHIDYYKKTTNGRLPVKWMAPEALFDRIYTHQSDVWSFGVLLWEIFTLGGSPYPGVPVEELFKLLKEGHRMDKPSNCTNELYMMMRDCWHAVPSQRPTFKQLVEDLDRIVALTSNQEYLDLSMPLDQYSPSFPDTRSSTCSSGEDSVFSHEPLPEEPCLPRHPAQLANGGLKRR
Readout Label: pIC50
Just the number, please; pIC50 means minus log10 of the concentration in mol/L.

Q: Param readout = pIC50; param system = Fibroblast growth factor receptor 1 (Homo sapiens); param query = CNC(=O)c1cccc2cc(Oc3ccnc4cc(OCC5(N)CC5)c(OC)cc34)ccc12 ; response: value
Ans: 7.76

====

biological target: Vascular endothelial growth factor receptor 3 (Homo sapiens)
Sequence (P35916 whole entry): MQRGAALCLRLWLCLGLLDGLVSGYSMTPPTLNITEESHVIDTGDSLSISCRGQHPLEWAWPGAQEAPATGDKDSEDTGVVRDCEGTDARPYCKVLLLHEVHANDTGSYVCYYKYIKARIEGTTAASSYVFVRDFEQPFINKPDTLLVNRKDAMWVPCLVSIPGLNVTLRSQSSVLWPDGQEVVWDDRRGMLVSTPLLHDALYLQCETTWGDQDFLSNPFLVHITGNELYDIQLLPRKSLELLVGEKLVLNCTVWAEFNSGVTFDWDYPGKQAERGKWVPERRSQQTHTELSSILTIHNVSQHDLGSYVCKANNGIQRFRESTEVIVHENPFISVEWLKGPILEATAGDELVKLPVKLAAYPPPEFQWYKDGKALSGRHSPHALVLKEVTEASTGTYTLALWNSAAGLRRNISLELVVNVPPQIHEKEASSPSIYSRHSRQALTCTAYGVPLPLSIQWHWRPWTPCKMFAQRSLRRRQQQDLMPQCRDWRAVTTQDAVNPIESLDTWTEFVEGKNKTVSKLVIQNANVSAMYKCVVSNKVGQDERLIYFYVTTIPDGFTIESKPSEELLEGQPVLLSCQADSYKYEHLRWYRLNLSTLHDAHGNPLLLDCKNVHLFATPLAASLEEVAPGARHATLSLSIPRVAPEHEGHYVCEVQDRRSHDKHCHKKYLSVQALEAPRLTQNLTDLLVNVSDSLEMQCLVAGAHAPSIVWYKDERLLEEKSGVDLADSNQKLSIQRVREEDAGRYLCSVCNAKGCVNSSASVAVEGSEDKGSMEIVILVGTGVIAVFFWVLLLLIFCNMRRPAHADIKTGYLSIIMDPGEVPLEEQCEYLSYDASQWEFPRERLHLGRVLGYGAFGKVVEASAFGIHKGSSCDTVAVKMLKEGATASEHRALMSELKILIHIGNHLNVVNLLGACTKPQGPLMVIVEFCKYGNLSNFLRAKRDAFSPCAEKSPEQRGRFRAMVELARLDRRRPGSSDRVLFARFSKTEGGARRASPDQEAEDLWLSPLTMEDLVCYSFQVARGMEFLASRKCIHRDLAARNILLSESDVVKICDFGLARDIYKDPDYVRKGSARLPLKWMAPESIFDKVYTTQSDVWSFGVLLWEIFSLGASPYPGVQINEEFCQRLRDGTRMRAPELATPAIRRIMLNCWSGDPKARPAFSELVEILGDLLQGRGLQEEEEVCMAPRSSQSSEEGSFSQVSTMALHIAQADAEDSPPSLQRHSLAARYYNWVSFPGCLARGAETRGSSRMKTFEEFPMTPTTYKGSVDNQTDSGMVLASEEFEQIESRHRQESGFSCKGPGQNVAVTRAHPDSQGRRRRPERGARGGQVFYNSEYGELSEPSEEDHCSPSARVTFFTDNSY
Readout Label: IC50 (nM)
Your answer should be a plain number; it is taken to be in nM.

Q: What reported IC50 corresponds to CNC(=O)c1cc(COc2nnc(Nc3ccc(Cl)cc3)c3ccoc23)ccn1 on Vascular endothelial growth factor receptor 3 (Homo sapiens)?
Ans: 4

====

molecular target: Fibroblast growth factor receptor 2 (Homo sapiens)
Sequence (P21802 whole entry): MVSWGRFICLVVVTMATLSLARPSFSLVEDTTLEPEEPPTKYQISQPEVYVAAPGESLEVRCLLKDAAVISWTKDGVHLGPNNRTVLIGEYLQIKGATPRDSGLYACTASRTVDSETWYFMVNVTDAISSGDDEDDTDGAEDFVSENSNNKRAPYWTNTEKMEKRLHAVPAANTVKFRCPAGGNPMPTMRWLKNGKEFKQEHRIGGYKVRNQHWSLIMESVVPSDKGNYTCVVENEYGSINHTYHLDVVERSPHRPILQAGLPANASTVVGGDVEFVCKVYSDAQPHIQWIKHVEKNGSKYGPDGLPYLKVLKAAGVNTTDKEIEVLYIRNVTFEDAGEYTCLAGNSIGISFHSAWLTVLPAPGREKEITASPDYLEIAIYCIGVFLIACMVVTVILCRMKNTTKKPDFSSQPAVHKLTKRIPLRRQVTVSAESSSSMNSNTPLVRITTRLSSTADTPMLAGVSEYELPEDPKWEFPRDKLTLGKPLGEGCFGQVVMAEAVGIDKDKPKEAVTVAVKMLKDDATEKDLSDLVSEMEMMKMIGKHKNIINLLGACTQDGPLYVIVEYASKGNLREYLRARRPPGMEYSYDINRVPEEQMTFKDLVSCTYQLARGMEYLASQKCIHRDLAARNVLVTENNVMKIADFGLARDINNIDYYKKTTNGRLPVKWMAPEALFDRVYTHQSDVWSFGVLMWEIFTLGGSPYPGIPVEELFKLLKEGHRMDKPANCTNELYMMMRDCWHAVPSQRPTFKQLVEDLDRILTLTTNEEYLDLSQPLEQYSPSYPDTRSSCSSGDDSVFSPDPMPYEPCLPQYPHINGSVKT
Readout Label: IC50 (nM)
Answer with a number only, understood to be in nM.

Q: Could you share what IC50 was measured for COc1cc2c(Oc3ccc(Nc4ccc(C(C)(C)C)cc4)cc3)ccnc2cc1OCCNCCO , tested on Fibroblast growth factor receptor 2 (Homo sapiens)?
Ans: 69

====

molecular target: Tyrosine-protein kinase Lck (Homo sapiens, UniProt P06239)
Sequence (P06239 whole entry): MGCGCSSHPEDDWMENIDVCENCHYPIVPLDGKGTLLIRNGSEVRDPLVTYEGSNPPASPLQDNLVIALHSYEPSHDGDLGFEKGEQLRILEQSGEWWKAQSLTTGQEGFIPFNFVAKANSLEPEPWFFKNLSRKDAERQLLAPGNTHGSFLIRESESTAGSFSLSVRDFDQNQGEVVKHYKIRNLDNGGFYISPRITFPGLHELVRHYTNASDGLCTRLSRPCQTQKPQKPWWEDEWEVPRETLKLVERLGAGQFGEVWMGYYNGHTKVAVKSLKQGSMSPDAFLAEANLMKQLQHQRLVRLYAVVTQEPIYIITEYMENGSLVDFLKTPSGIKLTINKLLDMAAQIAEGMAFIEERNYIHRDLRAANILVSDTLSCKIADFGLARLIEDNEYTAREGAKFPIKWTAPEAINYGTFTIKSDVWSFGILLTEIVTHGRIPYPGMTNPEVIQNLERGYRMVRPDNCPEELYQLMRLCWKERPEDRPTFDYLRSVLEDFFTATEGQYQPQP
Readout Label: pIC50
Units for pIC50: none; it is -log10 of a concentration expressed in mol/L.

Q: Please give the measured pIC50 for this molecule: O=C(Nc1ccc(OC(F)(F)F)cc1)c1sccc1NCc1ccnc2ccccc12
Ans: 7.66
